remaining at 0.5 h, 1 ug/ml reference
- EXPERIMENT_SUMMARY: Metabolic stability in mouse plasma assessed as compound remaining at 1 ug/ml after 30 mins
- Format: ADME, cell-free
- CONDITION_CONTEXT: read-out: Stability
Give the value, in units of %, as a plain number.

Below, 3 molecules whose answers are already recorded.
| MOLECULE | remaining at 0.5 h, 1 ug/ml / % |
| --- | --- |
| Cc1ccccc1COC(=O)[C@@H](NP(=O)(OC[C@H]1O[C@@H](n2cnc3c(=O)[nH]c(N)nc32)[C@](C)(O)[C@@H]1O)Oc1cccc2ccccc12)C(C)C (some centres not stated) | 67 |
| CC(C)[C@H](NP(=O)(OC[C@H]1O[C@@H](n2cnc3c(=O)[nH]c(N)nc32)[C@](C)(O)[C@@H]1O)Oc1cccc2ccccc12)C(=O)OCC(C)(C)C (some centres not stated) | 77 |
| CC(C)[C@H](NP(=O)(OC[C@H]1O[C@@H](n2cnc3c(=O)[nH]c(N)nc32)[C@](C)(O)[C@@H]1O)Oc1cccc2ccccc12)C(=O)OCc1ccccc1 (some centres not stated) | 89 |

Supply measured remaining at 0.5 h, 1 ug/ml of CC(OC(=O)[C@H](C)NP(=O)(OC[C@H]1O[C@@H](n2cnc3c(=O)[nH]c(N)nc32)[C@](C)(O)[C@@H]1O)Oc1cccc2ccccc12)c1ccccc1 (mixture of isomers) in your reply.
2.2

Supply measured remaining at 0.5 h, 1 ug/ml of CCCCCOC(=O)[C@H](C)NP(=O)(OC[C@H]1O[C@@H](n2cnc3c(=O)[nH]c(N)nc32)[C@](C)(O)[C@@H]1O)Oc1cccc2ccccc12 (some centres not stated) in your reply.
0

Supply measured remaining at 0.5 h, 1 ug/ml of CC(C)[C@H](NP(=O)(OC[C@H]1O[C@@H](n2cnc3c(=O)[nH]c(N)nc32)[C@](C)(O)[C@@H]1O)Oc1ccc2ccccc2c1)C(=O)OCc1ccccc1 (some centres not stated) in your reply.
99

Supply measured remaining at 0.5 h, 1 ug/ml of C[C@H](NP(=O)(OC[C@H]1O[C@@H](n2cnc3c(=O)[nH]c(N)nc32)[C@](C)(O)[C@@H]1O)Oc1cccc2ccccc12)C(=O)OCc1ccccc1 (some centres not stated) in your reply.
1.1

Supply measured remaining at 0.5 h, 1 ug/ml of CC[C@H](C)[C@H](NP(=O)(OC[C@H]1O[C@@H](n2cnc3c(=O)[nH]c(N)nc32)[C@](C)(O)[C@@H]1O)Oc1cccc2ccccc12)C(=O)OCc1ccccc1 (some centres not stated) in your reply.
100

Supply measured remaining at 0.5 h, 1 ug/ml of C[C@H](NP(=O)(OC[C@H]1O[C@@H](n2cnc3c(=O)[nH]c(N)nc32)[C@](C)(O)[C@@H]1O)Oc1cccc2ccccc12)C(=O)OC1CCCCC1 (some centres not stated) in your reply.
2.9
